- MEASUREMENT_NOTES: qHTS Assay for Identifying a Potential Treatment of Ataxia-Telangiectasia; also: nearly all actives have a fitted effect of over 45% in size
- STUDY_CONDITIONS: F2112 A-T fibroblasts, KAP-1 phosphorylation AlphaLISA, neocarzinostatin DNA damage 30 min before lysis; series mostly up to 57.5 µM
The campaign covered roughly 320,000 compounds. About 620 (0.19%) were called active. Calls follow the shape of the dose curve; as a rule, active = well fitted activation curve with a large enough effect; inconclusive = small, poorly fitted or top-dose-only effect; inactive = no such curve, though single readings can be large or run the other way. Many of the other results were omitted from the sample, so actives are more common in it than they were.
Result category, one only: active, inactive

Data request: Called result for CC(C)Cc1ccc(S(=O)(=O)N2CCN(C(=O)c3ccco3)CC2)cc1
Data returned: inactive

Data request: Called result for O=C(c1ccccc1Cl)N(Cc1ccccc1F)N1C(=O)CCCC1=O
Data returned: inactive

Data request: Called result for Cc1cc(NS(=O)(=O)c2ccc(NC(=O)C(C)Oc3cccc(C)c3C)cc2)nc(C)n1 (stereo unspecified)
Data returned: inactive

Data request: Called result for COc1ccc(C(C)NC(=S)NC2CCCCC2)cc1OC (stereo unspecified)
Data returned: inactive

Data request: Called result for O=C(Nc1cccc2c1N(C(=O)c1ccco1)CCC2)c1ccco1
Data returned: active

Data request: Called result for O=C(Nc1ccccc1N1CCN(C(=O)c2ccccc2)CC1)c1ccco1
Data returned: inactive

Data request: Called result for C=C(C)Cn1c(C)cc(C)c(S(=O)(=O)c2ccccc2C)c1=O
Data returned: inactive

Data request: Called result for COc1ccc(/C(=N\O)c2nccc3cc(OC)c(OC)cc23)cc1OC
Data returned: inactive

Data request: Called result for Cn1c2ccccc2c2cc(/C=C(\NC(=O)c3ccccc3)C(=O)NCC(=O)O)ccc21
Data returned: inactive

Data request: Called result for COCc1cc(C)nc2sc3c(=O)n(-c4cccc5ccccc45)nnc3c12
Data returned: inactive

Data request: Called result for COc1ccc(CN2CC(C(=O)NCCc3ccc(Cl)cc3)CC2=O)cc1 (stereo unspecified)
Data returned: inactive
